The measurements presented in this section are drawn from patent US20090143469A1.

- ASSAY DETAILS: Bulk density of nateglinide salts
- Format: physicochemical
REPORTED ENDPOINT: Bulk Density

1) CC(C)[C@H]1CC[C@H](C(=O)N[C@H](Cc2ccccc2)C(=O)O)CC1.CNC[C@H](O)[C@@H](O)[C@H](O)[C@H](O)CO ... 0.16 g/mL
2) [Ca] ... 0.24 g/mL
3) CC(C)[C@H]1CC[C@H](C(=O)N[C@H](Cc2ccccc2)C(=O)[O-])CC1.[Na+] [Sodium] ... 0.14 g/mL
4) CC(C)[C@H]1CC[C@H](C(=O)N[C@H](Cc2ccccc2)C(=O)O)CC1.NC(CO)(CO)CO ... 0.51 g/mL
5) CC(C)[C@H]1CC[C@H](C(=O)N[C@H](Cc2ccccc2)C(=O)O)CC1 [Form B of nateglinide, reference compound] ... 0.18 g/mL
6) [K+] ... 0.17 g/mL
7) CC(C)[C@H]1CC[C@H](C(=O)N[C@H](Cc2ccccc2)C(=O)[O-])CC1.CC(C)[C@H]1CC[C@H](C(=O)N[C@H](Cc2ccccc2)C(=O)[O-])CC1.[Mg+2] ... 0.21 g/mL
8) CC(C)[C@H]1CC[C@H](C(=O)N[C@H](Cc2ccccc2)C(=O)O)CC1 [Form H of nateglinide, reference compound] ... 0.28 g/mL
